# method_description: PSAC antagonists in infected red cells, primary screen, cell-based, P. falciparum Indochina, OD700, 2 h (AID 1155);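 note: lysis reports solute entry through the parasite surface anion channel PSAC; channel blockers reduce lysis of infected cells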
# assay_conditions: P. falciparum Indochina infected erythrocytes, osmotic lysis OD700, called active from +8 up or from −8 down
Active and inactive are the calls of the source.
Mark one answer only. Choices: 1 (active), 0 (inactive)

## Input Would you mind telling me which call this test gave CC(C)CNC(=O)[C@@H]1c2ccccc2C(=O)N(Cc2ccccc2)[C@H]1c1ccc(CO)cc1 ?
## Output 0

## Input Would you mind telling me which call this test gave CCCCC(O)C1C=CC2C(=O)NC(=O)C2N1Nc1ccc(Cl)cc1Cl (stereo not drawn) ?
## Output 0

## Input Would you mind telling me which call this test gave Cc1ccc(S(=O)(=O)N2[C@@H](c3ccccc3)C(C(=O)O)=CC[C@H]2c2ccc(C#N)cc2)cc1 ?
## Output 0

## Input Would you mind telling me which call this test gave COCCOC(=O)N1C(=O)[C@@]2(c3cc(C#CC4=CCCCC4)ccc31)[C@H](C(=O)N1CCc3cc(OC)c(OC)cc3C1)[C@H]1C(=O)O[C@H](c3ccccc3)[C@H](c3ccccc3)N1[C@@H]2c1ccc(O)cc1 ?
## Output 0

## Input Would you mind telling me which call this test gave CC(=O)NCCCC[C@@H]1NC(=O)[C@H]2C[C@@H](C(=O)NCCCCCC[N+](C)(C)C)[C@@H](c3ccc(O)cc3)N2C1=O ?
## Output 0

## Input Would you mind telling me which call this test gave C=CCN1C(=O)[C@]2(O[C@H](CCO)[C@@H]([Si](C)(C)c3ccc(OC)cc3)[C@@H]2C)c2ccccc21 ?
## Output 0

## Input Would you mind telling me which call this test gave [N-]=[N+]=Nc1ccccc1[C@@H]1OC(c2ccc(OCCCO)cc2)=N[C@]1(Cc1ccccc1)C(N)=O ?
## Output 1

## Input Would you mind telling me which call this test gave NCCCC[C@@H]1NC(=O)[C@H]2C[C@@H](C(=O)NCc3ccc(F)cc3)[C@@H](c3cccc(OCCO)c3)N2C1=O ?
## Output 0

## Input Would you mind telling me which call this test gave COc1ccc(CCNC(=O)[C@@H]2c3ccccc3C(=O)N(CC34CC5CC(CC(C5)C3)C4)[C@H]2c2ccc(CO)cc2)cc1 ?
## Output 0

## Input Would you mind telling me which call this test gave COC(=O)c1c(CC[C@@H](CO)NC(=O)N[C@@H](Cc2ccccc2)Cn2cc(-c3cncn3C)nn2)oc(C(C)=O)c1C(=O)OC ?
## Output 0

## Input Would you mind telling me which call this test gave C=CC[C@@]1(C(=O)N(C)C)N=C(c2ccc(OCCCO)cc2)O[C@@H]1c1ccccc1 ?
## Output 0

## Input Would you mind telling me which call this test gave C=CCC(OC(C)=O)[C@@H]1[C@@H](N(Cc2ccc(-c3ccccc3)cc2)C(=O)c2ccc(-c3ccccc3)cc2)c2cc(OCCCO)ccc2N1C(=O)c1ccc2ccccc2n1 (stereo partly drawn) ?
## Output 0

## Input Would you mind telling me which call this test gave [N-]=[N+]=NCc1ccccc1C[C@]1(C(=O)N2CCOCC2)N=C(c2ccc(OCCCO)cc2)O[C@H]1c1ccccc1CN=[N+]=[N-] ?
## Output 0

## Input Would you mind telling me which call this test gave CC(C)C[C@@H]1NC(=O)[C@H]2C[C@@H](C(=O)NCCCCCNC(=O)CS)[C@@H](c3ccc(O)cc3)N2C1=O ?
## Output 0

## Input Would you mind telling me which call this test gave CC(C)=CCN(C(=O)C#Cc1ccccc1)[C@H](CO)c1ccccc1 ?
## Output 0

## Input Would you mind telling me which call this test gave CC1CC/C=C\[C@H]2OC34C=CCN(c5ccc(Cl)cc5)C(=O)[C@H]3N(CCCO)C(=O)[C@]4(C)C2C(=O)O1 (stereo partly drawn) ?
## Output 0

## Input Would you mind telling me which call this test gave COC(=O)[C@@]1(Cc2ccc(OC)cc2)[C@@H]2[C@@H](CC(=O)[C@H]2CC(=O)C(=O)N2CCCC2)CN1C(=O)c1ccccc1 ?
## Output 0

## Input Would you mind telling me which call this test gave COC(=O)[C@@]1(Cc2ccc(OC)cc2)[C@H]2c3cc(C(=O)N(C)C)n(Cc4ccsc4Br)c3C[C@H]2CN1C(=O)c1ccccc1 ?
## Output 0
